- system: α-7 nicotinic acetylcholine receptor channel expressed in HEK 293 cells (Rattus norvegicus)
- Construct: expressed in transfected cells
- test.summary: Ca2+-sensitive fluorescence-based FLIPR assay, α7 nicotinic ACh receptor channel function (agonist)
- Assay type: cell-based
- measurement.parameters: FLIPR α7 activity rating (EC50, nM), Table 1; HEK 293 cells, agonist Ca2+ flux
measured.attribute: EC50

Worked cases, answers included:
given_smiles=c1ccc2nc(NC3=NC[C@@]4(CN5CCC4CC5)O3)cnc2c1 result="< 100 nM"
given_smiles=Fc1ccc2[nH]nc(NC3=NC[C@@]4(CN5CCC4CC5)O3)c2c1 result="< 100 nM"

In the following, a different compound is considered.
-- ask Consider the compound shown here: FC(F)Oc1cnc(NC2=NC[C@@]3(CN4CCC3CC4)O2)nc1 What is its recorded EC50?
-- reply < 100 nM

---

- system: α-7 nicotinic acetylcholine receptor channel expressed in HEK 293 cells (Rattus norvegicus, UniProt Q05941)
- Construct: expressed in transfected cells
- Sequence (Q05941 23-502): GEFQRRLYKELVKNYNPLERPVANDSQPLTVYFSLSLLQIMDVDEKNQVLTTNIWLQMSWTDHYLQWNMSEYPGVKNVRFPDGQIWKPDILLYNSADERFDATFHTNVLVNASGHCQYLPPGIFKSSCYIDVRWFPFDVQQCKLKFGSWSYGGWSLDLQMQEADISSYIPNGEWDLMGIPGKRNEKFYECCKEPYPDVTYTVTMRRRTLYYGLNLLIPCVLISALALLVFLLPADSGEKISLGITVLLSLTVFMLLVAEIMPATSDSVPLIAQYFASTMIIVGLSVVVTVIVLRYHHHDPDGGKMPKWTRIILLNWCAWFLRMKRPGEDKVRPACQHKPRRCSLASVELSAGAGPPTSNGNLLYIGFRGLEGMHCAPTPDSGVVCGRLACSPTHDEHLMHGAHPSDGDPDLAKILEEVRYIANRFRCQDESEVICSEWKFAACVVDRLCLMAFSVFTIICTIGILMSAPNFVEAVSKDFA
- test.summary: Ca2+-sensitive fluorescence-based FLIPR assay, α7 nicotinic ACh receptor channel function (agonist)
- Assay type: cell-based
- measurement.parameters: FLIPR α7 activity rating (EC50, nM), Table 1; HEK 293 cells, agonist Ca2+ flux
EC50 by entry:

molecule="COc1cc(C)nc(NC2=NC[C@@]3(CN4CCC3CC4)O2)n1 [Example 172]" result="100 to 1000 nM"

-- ask Consider the molecule shown here: Clc1ccc2nc(NC3=NCC4(CN5CCC4CC5)O3)sc2c1 (single isomer, unassigned) [Example 9a] What is its recorded EC50?
-- reply 1000 to 100000 nM

-- ask Consider the molecule shown here: COc1ccn2nc(NC3=NC[C@@]4(CN5CCC4CC5)O3)nc2c1 [Example 125] What is its recorded EC50?
-- reply < 100 nM

-- ask Consider the molecule shown here: Oc1ccc2nc(NC3=NCC4(CN5CCC4CC5)O3)sc2c1 (racemic) [Example 13] What is its recorded EC50?
-- reply < 100 nM

---

- system: α-7 nicotinic acetylcholine receptor channel expressed in HEK 293 cells (Rattus norvegicus, UniProt Q05941)
- Construct: expressed in transfected cells
- test.summary: Ca2+-sensitive fluorescence-based FLIPR assay, α7 nicotinic ACh receptor channel function (agonist)
- Type: cell-based
- measurement.parameters: FLIPR α7 activity rating (EC50, nM), Table 1; HEK 293 cells, agonist Ca2+ flux
measured.attribute: EC50

molecule="COc1ccc2nc(NC3=NCC4(CN5CCC4CC5)O3)sc2c1 (single isomer, unassigned) [Example 5a]" measured_attribute=EC50 result="1000 to 100000 nM"

-- ask Consider the molecule shown here: Cc1cc(C)nc(NC2=NC[C@@]3(CN4CCC3CC4)O2)n1 [Example 176] What is its recorded EC50?
-- reply 100 to 1000 nM

-- ask Consider the molecule shown here: c1ccc2oc(NC3=NC[C@@]4(CN5CCC4CC5)O3)nc2c1 [Example 288] What is its recorded EC50?
-- reply < 100 nM

-- ask Consider the molecule shown here: Cc1ccc(NC2=NCC3(CN4CCC3CC4)O2)nn1 (racemic) [Example 124] What is its recorded EC50?
-- reply 1000 to 100000 nM

---

- system: α-7 nicotinic acetylcholine receptor channel expressed in HEK 293 cells (Rattus norvegicus)
- Construct: expressed in transfected cells
- test.summary: Ca2+-sensitive fluorescence-based FLIPR assay, α7 nicotinic ACh receptor channel function (agonist)
- Format: cell-based
- measurement.parameters: FLIPR α7 activity rating (EC50, nM), Table 1; HEK 293 cells, agonist Ca2+ flux
measured.attribute: EC50

Worked cases, answers included:
compound=COc1cc(NC2=NC[C@@]3(CN4CCC3CC4)O2)ccn1 result="1000 to 100000 nM"
compound=c1ccc(Oc2cc(NC3=NC[C@@]4(CN5CCC4CC5)O3)ncn2)cc1 result="100 to 1000 nM"
compound=FC(F)(F)c1cccc2c(NC3=NC[C@@]4(CN5CCC4CC5)O3)n[nH]c12 result="1000 to 100000 nM"
compound="Cc1cnn(C)c1NC1=NCC2(CN3CCC2CC3)O1 (stereo not drawn)" result="1000 to 100000 nM"
compound=Cc1cnc(NC2=NC[C@@]3(CN4CCC3CC4)O2)nc1C result="< 100 nM"
compound=Clc1cccc2[nH]nc(NC3=NC[C@@]4(CN5CCC4CC5)O3)c12 result="100 to 1000 nM"
compound=Cc1cc(-c2ccccc2)nc(NC2=NC[C@@]3(CN4CCC3CC4)O2)n1 result="100 to 1000 nM"
compound=COc1cc(NC2=NC[C@@]3(CN4CCC3CC4)O2)nc(OC)n1 result="100 to 1000 nM"
compound=Cc1ccc2ncc(NC3=NC[C@@]4(CN5CCC4CC5)O3)nc2c1 result="1000 to 100000 nM"
compound=c1ccc(COc2ccc3nc(NC4=NC[C@@]5(CN6CCC5CC6)O4)sc3n2)cc1 result="1000 to 100000 nM"

-- ask Consider the compound shown here: c1ccc(-c2cnc(NC3=NCC4(CN5CCC4CC5)O3)s2)cc1 (stereo not drawn) [Example 4] What is its recorded EC50?
-- reply < 100 nM

-- ask Consider the compound shown here: COc1ncnc2sc(NC3=NC[C@@]4(CN5CCC4CC5)O3)nc12 What is its recorded EC50?
-- reply 1000 to 100000 nM

-- ask Consider the compound shown here: c1ccc2c(NC3=NC[C@@]4(CN5CCC4CC5)O3)n[nH]c2c1 What is its recorded EC50?
-- reply < 100 nM

-- ask Consider the compound shown here: N#Cc1cnc(NC2=NC[C@@]3(CN4CCC3CC4)O2)cn1 What is its recorded EC50?
-- reply 1000 to 100000 nM

-- ask Consider the compound shown here: c1ccc(-c2csc(NC3=NCC4(CN5CCC4CC5)O3)n2)cc1 (stereo not drawn) What is its recorded EC50?
-- reply 100 to 1000 nM
